Assay: Oxidative metabolic stability in human liver microsomes assessed as compound remaining at 2 uM after 30 mins in presence of 1 mM UDPGA
Assay type: ADME, Microsome
Settings: liver microsomes, read-out: Stability
quantity-kind: remaining at 0.5 h, 2 µM (%)
Field: numeric (%). Do not append units.

Value lookup for remaining at 0.5 h, 2 µM; key = C[C@@H]1N(S(=O)(=O)c2ccc(C(F)(F)F)nc2)[C@H](C2CC2)c2cn[nH]c2C1(F)F (relative stereo)
59

Give its remaining at 0.5 h, 2 µM value. Item: C[C@H]1C(=O)c2[nH]ncc2[C@@H](C2CC2)N1S(=O)(=O)c1ccc(C(F)(F)F)nc1 (relative stereo)
59

Bench note: what remaining at 0.5 h, 2 µM did O=S(=O)(c1ccc(C(F)(F)F)cc1)N1C(C2CC2)c2cn[nH]c2C(F)(F)C1C1CC1 (stereo not drawn) show?
64

I have this compound here, CC1(C)C(=O)c2[nH]ncc2C(C2CC2)N1S(=O)(=O)c1ccc(C(F)(F)F)cc1 (racemic) , and I need its recorded remaining at 0.5 h, 2 µM.
67

Sample O=S(=O)(c1ccc(C(F)(F)F)nc1)N1C(C2CC2)c2cn[nH]c2C(F)(F)C12CC2 (racemic) — what was its remaining at 0.5 h, 2 µM?
89

Find the recorded remaining at 0.5 h, 2 µM belonging to O=C1c2[nH]ncc2[C@@H](C2CC2)N(S(=O)(=O)c2ccc(C(F)(F)F)nc2)[C@@H]1C1CC1 (relative stereo) and report it.
87

remaining at 0.5 h, 2 µM for CC(C)[C@@H]1c2cn[nH]c2C(=O)CN1S(=O)(=O)c1ccc(Cl)cc1 ?
71

For the compound shown here, O=S(=O)(c1ccc(C(F)(F)F)nc1)N1[C@H](C2CC2)c2cn[nH]c2C(F)(F)[C@H]1C1CC1 (stereo in doubt) , give the reported remaining at 0.5 h, 2 µM.
41

====

Assay: Oxidative metabolic stability in human liver microsomes assessed as compound remaining at 1 uM after 30 mins in presence of 1 mM NADPH
Assay type: ADME, Microsome
Settings: liver microsomes, read-out: Stability
Field 'label' (enum: Criterion met / Criterion not met). Set to Criterion met when remaining at 0.5 h, 1 µM is strictly under 3%; else Criterion not met.

Does the reported remaining at 0.5 h, 1 µM of the following compound sit strictly below 3%? C[C@H]1C(=O)c2[nH]ncc2[C@@H](C2CC2)N1S(=O)(=O)c1ccc(C(F)(F)F)nc1 (relative stereo)
Criterion not met

Below 3% on remaining at 0.5 h, 1 µM? Entry O=C1CN(S(=O)(=O)c2ccc(C(F)(F)F)cc2)C(C(F)(F)F)c2cn[nH]c21 (stereo not drawn)
Criterion met

Regarding C[C@@H]1c2cn[nH]c2C(=O)[C@H](C)N1S(=O)(=O)c1ccc(C(F)(F)F)nc1 (stereo in doubt) , kindly confirm whether its remaining at 0.5 h, 1 µM is beneath 3%.
Criterion not met

Problem: For the compound O=C1c2[nH]ncc2C(C2CC2)N(S(=O)(=O)c2ccc(C(F)(F)F)cc2)C1C1CC1 (racemic) , is remaining at 0.5 h, 1 µM under 3%?
Criterion not met

For this compound, is remaining at 0.5 h, 1 µM lower than 3%? O=C1c2[nH]ncc2C(C2CC2)N(S(=O)(=O)c2ccc(Cl)s2)C12CC2 (racemic)
Criterion met

Is the reported remaining at 0.5 h, 1 µM for CC(C)C1c2cn[nH]c2C(F)(F)CN1S(=O)(=O)c1ccc(Cl)cc1 (racemic) strictly below 3%?
Criterion met

Quick check: remaining at 0.5 h, 1 µM of CC(C)[C@@H]1c2cn[nH]c2C(=O)CN1S(=O)(=O)c1ccc(Cl)cc1 under 3%?
Criterion not met

====

Molecular target: Gamma-secretase (Homo sapiens) (UniProt Q96BI3+Q9NZ42+Q8WW43+P49768+Q92542+P49810)
Experiment: Inhibition of gamma-secretase-mediated APP cleavage in human SNC cells by ELISA
Format: cell-based
Rule: measured ED50 below 7 nM gets y; anything equal to or greater than 7 nM gets n.

For this molecule, is ED50 lower than 7 nM? CC(C)[C@H]1C(=O)c2[nH]ncc2[C@@H](C(C)C)N1S(=O)(=O)c1ccc(C(F)(F)F)cc1 (relative stereo)
n

Below 7 nM on ED50? Entry CC(C)C1c2cn[nH]c2C(F)(F)CN1S(=O)(=O)c1ccc(Cl)cc1 (racemic)
n

For CC1C(=O)c2[nH]ncc2C(C)N1S(=O)(=O)c1ccc(C(F)(F)F)cc1 (stereo not drawn) , is the recorded ED50 below the cut-off of 7 nM?
n

Determine whether this molecule shows ED50 lower than 7 nM (ties excluded): O=S(=O)(c1ccc(C(F)(F)F)nc1)N1[C@@H](C2CC2)c2cn[nH]c2C(F)(F)[C@@H]1C1CC1 (stereo in doubt)
y

Confirm or reject: ED50 of CC1(C)C(=O)c2[nH]ncc2C(C2CC2)N1S(=O)(=O)c1ccc(C(F)(F)F)cc1 (racemic) lies strictly below 7 nM
n

Please state whether ED50 is below 7 nM for O=C1c2[nH]ncc2C(C2CC2)N(S(=O)(=O)c2ccc(C(F)(F)F)cn2)C12CC2 (racemic)
n

====

Provide the reported remaining at 0.5 h, 2 µM of each item.
Assay: Oxidative metabolic stability in human liver microsomes assessed as compound remaining at 2 uM after 30 mins in presence of 1 mM UDPGA
Type: ADME, Microsome
Details: liver microsomes, read-out: Stability

Find the recorded remaining at 0.5 h, 2 µM belonging to O=C1c2[nH]ncc2C(C2CC2)N(S(=O)(=O)c2ccc(C(F)(F)F)cc2)C12CC2 (racemic) and report it.
84%

What value of remaining at 0.5 h, 2 µM has been reported for the following compound? CC1C(=O)c2[nH]ncc2C(C2CC2)N1S(=O)(=O)c1ccc(C(F)(F)F)cc1 (centres undefined)
67%

# lookup: remaining at 0.5 h, 2 µM of CC[C@@H]1c2cn[nH]c2C(=O)[C@H](CC)N1S(=O)(=O)c1ccc(C(F)(F)F)nc1 (relative stereo)
83%

Quick one: remaining at 0.5 h, 2 µM of CC[C@@H]1c2cn[nH]c2C(F)(F)[C@H](CC)N1S(=O)(=O)c1ccc(C(F)(F)F)nc1 (relative stereo) ?
66%

====

Molecular target: Gamma-secretase (Homo sapiens) (UniProt Q96BI3+Q9NZ42+Q8WW43+P49768+Q92542+P49810)
Experiment: Inhibition of gamma-secretase-mediated APP cleavage in human SNC cells by ELISA
Assay type: cell-based
quantity-kind: ED50 (µM)
Reply numerically in µM, unit not repeated.

Suppose we examine the compound O=C1c2[nH]ncc2[C@@H](C2CC2)N(S(=O)(=O)c2ccc(C(F)(F)F)nc2)[C@H]1C1CC1 (relative stereo) ; what ED50 value has been reported?
0.13

Record request: ED50 value, item O=C1CN(S(=O)(=O)c2ccc(C(F)(F)F)nc2)C(C2CC2)c2cn[nH]c21 (racemic)
6

Can you share its ED50? I mean this compound: O=S(=O)(c1ccc(C(F)(F)F)nc1)N1C(C2CC2)c2cn[nH]c2C(F)(F)C12CC2 (stereo in doubt; 17c)
0.086

====

Test: Oxidative metabolic stability in human liver microsomes assessed as compound remaining at 2 uM after 30 mins in presence of 1 mM UDPGA
Assay type: ADME, Microsome
Settings: liver microsomes, read-out: Stability
I'd be grateful if you could share measured remaining at 0.5 h, 2 µM for these entries.
State just the number; it will be interpreted in %.

Record request: remaining at 0.5 h, 2 µM value, item O=C1c2[nH]ncc2C(C2CC2)N(S(=O)(=O)c2ccc(C(F)(F)F)nc2)C12CC2 (racemic)
91

Data request, read-out remaining at 0.5 h, 2 µM, for C[C@@H]1N(S(=O)(=O)c2ccc(C(F)(F)F)cc2)[C@H](C2CC2)c2cn[nH]c2C1(F)F (relative stereo)
46

Looking for the measured remaining at 0.5 h, 2 µM of O=S(=O)(c1ccc(C(F)(F)F)nc1)N1[C@@H](C2CC2)C(F)(F)c2[nH]ncc2[C@H]1C1CC1 (stereo in doubt) , can you help?
67

Give the measured remaining at 0.5 h, 2 µM of O=C1c2[nH]ncc2[C@@H](C2CC2)N(S(=O)(=O)c2ccc(C(F)(F)F)nc2)[C@H]1C1CC1 (relative stereo) .
75

====

Target: Gamma-secretase (Homo sapiens) (UniProt Q96BI3+Q9NZ42+Q8WW43+P49768+Q92542+P49810)
Assay: Inhibition of gamma-secretase-mediated APP cleavage in human SNC cells by ELISA
Assay type: cell-based
Answer each item with its documented ED50.
Report only the number, with the unit nM understood.

Value wanted: ED50 (Gamma-secretase (Homo sapiens) (UniProt Q96BI3+Q9NZ42+Q8WW43+P49768+Q92542+P49810)) of entry O=S(=O)(c1ccc(C(F)(F)F)nc1)N1[C@@H](C2CC2)C(F)(F)c2[nH]ncc2[C@H]1C1CC1 (stereo in doubt)
3

Give the reported ED50 for O=S(=O)(c1ccc(C(F)(F)F)cc1)N1CC(F)(F)c2[nH]ncc2C1C(F)(F)F (racemic) (system: Gamma-secretase (Homo sapiens) (UniProt Q96BI3+Q9NZ42+Q8WW43+P49768+Q92542+P49810)).
4

Request body: readout ED50, system Gamma-secretase (Homo sapiens) (UniProt Q96BI3+Q9NZ42+Q8WW43+P49768+Q92542+P49810), query O=C1c2[nH]ncc2C(C2CC2)N(S(=O)(=O)c2ccc(C(F)(F)F)cn2)C12CC2 (stereo in doubt; 16i) . Return the value.
26
